meta.source: BigSolDB 2.1

condition.context: in methanol, 298.15 K
measurement.kind: solubility (mole fraction)
// no unit, no text: just the number

Give solubility (mole fraction) for `CC(=O)Nc1ccc(OC(=O)c2ccccc2OC(C)=O)cc1`
0.001

* * *

condition.context: in n-propanol, 308.15 K
measurement.kind: solubility (mole fraction)
Kindly provide the number alone.

Report solubility (mole fraction) for `CC(=O)Nc1ccc(OC(=O)c2ccccc2OC(C)=O)cc1`
0.0013

* * *

condition.context: in ethyl formate, 313.15 K
measurement.kind: solubility (mole fraction)
# print the numeric value only

Give the reported solubility (mole fraction) for this molecule. `CC(=O)Nc1ccc(OC(=O)c2ccccc2OC(C)=O)cc1`
0.00394

* * *

condition.context: in n-propanol, 288.15 K
measurement.kind: solubility (mole fraction)
Please respond with just the number, no unit label.

Return solubility (mole fraction) (reported value) for this compound: `CC(=O)Nc1ccc(OC(=O)c2ccccc2OC(C)=O)cc1`
0.000361

* * *

condition.context: in acetone, 293.15 K
measurement.kind: solubility (mole fraction)
Would you mind answering with just the numeric figure?

Answer with the recorded solubility (mole fraction) of `CC(=O)Nc1ccc(OC(=O)c2ccccc2OC(C)=O)cc1` only.
0.00414

* * *

condition.context: in n-butanol, 318.15 K
measurement.kind: solubility (mole fraction)
# respond with the number and nothing more

Answer with the recorded solubility (mole fraction) of `CC(=O)Nc1ccc(OC(=O)c2ccccc2OC(C)=O)cc1` only.
0.00174

* * *

condition.context: in methanol, 288.15 K
measurement.kind: solubility (mole fraction)
Hey, just send me the number, nothing else.

Give me measured solubility (mole fraction), please, for this compound: `CC(=O)Nc1ccc(OC(=O)c2ccccc2OC(C)=O)cc1`
0.000718

* * *

condition.context: in ethyl acetate, 293.15 K
measurement.kind: solubility (mole fraction)
Form: value (number only, do not type unit).

Output solubility (mole fraction) of `CC(=O)Nc1ccc(OC(=O)c2ccccc2OC(C)=O)cc1`
0.00147

* * *

condition.context: in methyl acetate, 278.15 K
measurement.kind: solubility (mole fraction)
Number, no unit, nothing else.

Dear colleague, please send me the reported solubility (mole fraction) for `CC(=O)Nc1ccc(OC(=O)c2ccccc2OC(C)=O)cc1` when you can.
0.000971

* * *

condition.context: in acetone, 283.15 K
measurement.kind: solubility (mole fraction)
Enter a number only.

Give the reported solubility (mole fraction) for this molecule. `CC(=O)Nc1ccc(OC(=O)c2ccccc2OC(C)=O)cc1`
0.00268

* * *

condition.context: in acetone, 288.15 K
measurement.kind: solubility (mole fraction)
Just the number.

Could you please provide reported solubility (mole fraction) for `CC(=O)Nc1ccc(OC(=O)c2ccccc2OC(C)=O)cc1` ? Thanks!
0.00353

* * *

condition.context: in isopropyl acetate, 308.15 K
measurement.kind: solubility (mole fraction)
Response field accepts a number only; no unit should be typed.

Give recorded solubility (mole fraction). `CC(=O)Nc1ccc(OC(=O)c2ccccc2OC(C)=O)cc1`
0.00189

* * *

condition.context: in isobutanol, 278.15 K
measurement.kind: solubility (mole fraction)
Just the number.

Retrieve solubility (mole fraction) measured for `CC(=O)Nc1ccc(OC(=O)c2ccccc2OC(C)=O)cc1` and print it.
0.000204

* * *

condition.context: in isopropanol, 298.15 K
measurement.kind: solubility (mole fraction)

Provide solubility (mole fraction) value for the following compound: `CC(=O)Nc1ccc(OC(=O)c2ccccc2OC(C)=O)cc1`
0.000481

* * *

condition.context: in ethyl acetate, 313.15 K
measurement.kind: solubility (mole fraction)
Give the value as a plain number.

Annotate the compound `CC(=O)Nc1ccc(OC(=O)c2ccccc2OC(C)=O)cc1` with its measured solubility (mole fraction).
0.00325

* * *

condition.context: in ethyl formate, 278.15 K
measurement.kind: solubility (mole fraction)
# output: bare number, no unit

Return solubility (mole fraction) (reported value) for this compound: `CC(=O)Nc1ccc(OC(=O)c2ccccc2OC(C)=O)cc1`
0.000965

* * *

condition.context: in acetonitrile, 313.15 K
measurement.kind: solubility (mole fraction)
// return just the number, without any unit appended

Write down solubility (mole fraction) measured for item `CC(=O)Nc1ccc(OC(=O)c2ccccc2OC(C)=O)cc1`
0.00575

* * *

condition.context: in acetone, 318.15 K
measurement.kind: solubility (mole fraction)
No unit in the answer, only the number.

Report solubility (mole fraction), nothing else, for this compound: `CC(=O)Nc1ccc(OC(=O)c2ccccc2OC(C)=O)cc1`
0.0123

* * *

condition.context: in acetone, 303.15 K
measurement.kind: solubility (mole fraction)
Output: the number by itself.

Given the molecule `CC(=O)Nc1ccc(OC(=O)c2ccccc2OC(C)=O)cc1` , write its reported solubility (mole fraction).
0.00593

* * *

condition.context: in n-butanol, 308.15 K
measurement.kind: solubility (mole fraction)
// response body must contain only the number

Look up and state reported solubility (mole fraction) for `CC(=O)Nc1ccc(OC(=O)c2ccccc2OC(C)=O)cc1`
0.00127

* * *

condition.context: in ethyl formate, 298.15 K
measurement.kind: solubility (mole fraction)

Give the reported value of solubility (mole fraction) for this record: `CC(=O)Nc1ccc(OC(=O)c2ccccc2OC(C)=O)cc1`
0.00193

* * *

condition.context: in ethyl acetate, 298.15 K
measurement.kind: solubility (mole fraction)
# respond with the number and nothing more

Return the recorded solubility (mole fraction) value; entry: `CC(=O)Nc1ccc(OC(=O)c2ccccc2OC(C)=O)cc1`
0.00179

* * *

condition.context: in isobutanol, 293.15 K
measurement.kind: solubility (mole fraction)
Note: the reply should be a number with no unit written.

Provide only the value of recorded solubility (mole fraction) for `CC(=O)Nc1ccc(OC(=O)c2ccccc2OC(C)=O)cc1`
0.000485

* * *

condition.context: in methanol, 278.15 K
measurement.kind: solubility (mole fraction)
Write the number on its own, no unit after it.

Note solubility (mole fraction) for the compound shown: `CC(=O)Nc1ccc(OC(=O)c2ccccc2OC(C)=O)cc1`
0.000427

* * *

condition.context: in isopropanol, 288.15 K
measurement.kind: solubility (mole fraction)
The answer should be written as a number, with no unit following it.

Name the recorded solubility (mole fraction) of the compound listed here: `CC(=O)Nc1ccc(OC(=O)c2ccccc2OC(C)=O)cc1`
0.000261

* * *

condition.context: in n-propanol, 298.15 K
measurement.kind: solubility (mole fraction)

Output solubility (mole fraction) of `CC(=O)Nc1ccc(OC(=O)c2ccccc2OC(C)=O)cc1`
0.000723

* * *

condition.context: in acetonitrile, 283.15 K
measurement.kind: solubility (mole fraction)
// no unit string in output, number only

Output measured solubility (mole fraction) for this item: `CC(=O)Nc1ccc(OC(=O)c2ccccc2OC(C)=O)cc1`
0.00153

* * *

condition.context: in n-propanol, 313.15 K
measurement.kind: solubility (mole fraction)
Would you mind answering with just the numeric figure?

Query solubility (mole fraction) for `CC(=O)Nc1ccc(OC(=O)c2ccccc2OC(C)=O)cc1`
0.00166

* * *

condition.context: in isobutanol, 288.15 K
measurement.kind: solubility (mole fraction)
I only need the number, thanks.

Provide solubility (mole fraction) value for the following compound: `CC(=O)Nc1ccc(OC(=O)c2ccccc2OC(C)=O)cc1`
0.000344

* * *

condition.context: in n-butanol, 288.15 K
measurement.kind: solubility (mole fraction)
Reply with just the number.

Output measured solubility (mole fraction) for this item: `CC(=O)Nc1ccc(OC(=O)c2ccccc2OC(C)=O)cc1`
0.000517

* * *

condition.context: in ethanol, 288.15 K
measurement.kind: solubility (mole fraction)
Respond using a number only.

Give recorded solubility (mole fraction). `CC(=O)Nc1ccc(OC(=O)c2ccccc2OC(C)=O)cc1`
0.000497

* * *

condition.context: in methanol, 318.15 K
measurement.kind: solubility (mole fraction)
Number only, no unit.

Specify measured solubility (mole fraction) for `CC(=O)Nc1ccc(OC(=O)c2ccccc2OC(C)=O)cc1` .
0.00271

* * *

condition.context: in ethanol, 293.15 K
measurement.kind: solubility (mole fraction)
No unit in the answer, only the number.

For the compound `CC(=O)Nc1ccc(OC(=O)c2ccccc2OC(C)=O)cc1` , give its reported solubility (mole fraction).
0.000601

* * *

condition.context: in methyl acetate, 308.15 K
measurement.kind: solubility (mole fraction)
Give the figure by itself; no unit, no explanation.

Fill in reported solubility (mole fraction) for this entry: `CC(=O)Nc1ccc(OC(=O)c2ccccc2OC(C)=O)cc1`
0.0034

* * *

condition.context: in n-butanol, 298.15 K
measurement.kind: solubility (mole fraction)
API doc: respond with a numeric literal and nothing else, no unit.

Look up solubility (mole fraction) of `CC(=O)Nc1ccc(OC(=O)c2ccccc2OC(C)=O)cc1` and report it.
0.000764

* * *

condition.context: in ethyl acetate, 308.15 K
measurement.kind: solubility (mole fraction)
Form: value (number only, do not type unit).

Assign solubility (mole fraction) to the following record: `CC(=O)Nc1ccc(OC(=O)c2ccccc2OC(C)=O)cc1`
0.00268

* * *

condition.context: in ethyl formate, 288.15 K
measurement.kind: solubility (mole fraction)
Number, no unit, nothing else.

Return solubility (mole fraction) (reported value) for this molecule: `CC(=O)Nc1ccc(OC(=O)c2ccccc2OC(C)=O)cc1`
0.00138
